Here the recorded Ki is given for each entry.
study-target: T1, human glucagon receptor (human, UniProt P47871 26-477)
T1 construct: whole, on cells; also called hGCGR; hGcgR
T1 sequence (P47871 26-477): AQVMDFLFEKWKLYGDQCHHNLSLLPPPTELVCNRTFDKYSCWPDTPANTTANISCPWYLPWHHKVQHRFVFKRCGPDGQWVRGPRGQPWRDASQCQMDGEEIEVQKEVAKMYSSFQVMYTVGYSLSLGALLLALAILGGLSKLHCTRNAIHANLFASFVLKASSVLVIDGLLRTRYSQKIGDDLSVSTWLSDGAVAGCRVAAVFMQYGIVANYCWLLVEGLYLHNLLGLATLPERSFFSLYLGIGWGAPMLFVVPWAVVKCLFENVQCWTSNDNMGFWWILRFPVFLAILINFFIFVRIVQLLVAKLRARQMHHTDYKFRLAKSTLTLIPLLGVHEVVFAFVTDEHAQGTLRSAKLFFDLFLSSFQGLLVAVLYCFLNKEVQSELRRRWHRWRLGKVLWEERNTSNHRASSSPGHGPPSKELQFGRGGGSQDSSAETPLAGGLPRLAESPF
assay-overview: SPA competition vs [125I]-Gcg, hGcgR membranes
Numeric answer only, unit nM assumed.

# binder, result-unit, Ki
data = [
    ("YXEGTXTSDXSIXLDXKAQXEFIXXLIEGGKSSGAPPPS (Aib2, αMeF(2F)6, 4Pal10, αMeL13, Orn16, K17(Z1), Aib20, D-Glu24, αMeY25, K31(Z1), C-term NH2; Z1=(γ-Glu)-AEEA-CO-(CH2)12-CO2H)", "nM", 458),
]

## Task Look up Ki: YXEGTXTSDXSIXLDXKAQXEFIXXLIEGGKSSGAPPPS (Aib2, αMeF(2F)6, 4Pal10, αMeL13, Orn16, K17(Z1), Aib20, D-Glu24, αMeY25, K31(Z1), C-term NH2; Z1=AEEA2-(γ-Glu)-(4-(4-iodophenyl)butanoyl))
## Result 711

## Task Moving on to YXEGTXTSDXXIXLDXQAQXXFIKXLIKGGPSSGAPPPS (Aib2, αMeF(2F)6, 4Pal10, Aib11, αMeL13, Orn16, Aib20, Orn21, K24(Z1), αMeY25, K28(Z1), C-term NH2; Z1=AEEA2-(γ-Glu)-(11-(4-carboxyphenoxy)undecanoyl))
## Result 130

Just for reference, patent US20230265151A1 is where these values come from.
